Kindly state pKi for each of the entries shown.
- TARGET OR SYSTEM: LCK tyrosine kinase (Homo sapiens, UniProt P06239, C224D/P223M)
- Construct: starting from amino acid residue 223 to the end of the protein at residue 509
- Sequence (P06239 223-509 P223M/C224D): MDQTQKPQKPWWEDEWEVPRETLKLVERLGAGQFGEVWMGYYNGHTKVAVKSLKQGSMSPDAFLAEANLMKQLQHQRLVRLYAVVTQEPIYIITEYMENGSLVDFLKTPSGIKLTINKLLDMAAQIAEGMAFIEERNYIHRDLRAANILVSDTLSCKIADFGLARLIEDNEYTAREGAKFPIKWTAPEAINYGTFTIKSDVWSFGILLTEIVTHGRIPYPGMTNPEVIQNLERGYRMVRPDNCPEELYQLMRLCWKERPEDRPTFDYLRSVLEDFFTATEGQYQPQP
- ASSAY OVERVIEW: LCK spectrophotometric assay;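 further: recombinant LCK kinase activity on poly(E4Y1), ADP formation coupled through PK/LDH to NADH oxidation, followed as absorbance loss at 340 nm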
- CONDITION SUMMARY: read-out: LCK-P Ki
Scale explanation: pKi corresponds to minus log10 of a concentration expressed in moles per litre.

Exercise: Form entry - test system: LCK tyrosine kinase (Homo sapiens, UniProt P06239, C224D/P223M); read-out: pKi; compound: O=C(Nc1ccc(N2CCCC2)c(C(F)(F)F)c1)c1cccc(CCc2cc(Nc3cccnc3)n[nH]2)c1
Key: 8.60

Exercise: Form entry - test system: LCK tyrosine kinase (Homo sapiens, UniProt P06239, C224D/P223M); read-out: pKi; compound: Cc1cc(NC(=O)c2cccc(OCc3cncc4ccccc34)c2)ccc1C(C)C
Key: 7.23

Exercise: Form entry - test system: LCK tyrosine kinase (Homo sapiens, UniProt P06239, C224D/P223M); read-out: pKi; compound: CC(=O)Nc1ccc(COc2cccc(C(=O)Nc3ccc4nc(C)ccc4c3)c2)cn1
Key: 6.80

Exercise: Form entry - test system: LCK tyrosine kinase (Homo sapiens, UniProt P06239, C224D/P223M); read-out: pKi; compound: COc1ccc(Nc2cc(CCc3cccc(C(=O)Nc4cc(Cl)c(N(C)C)c(Cl)c4)c3)[nH]n2)cn1
Key: 7.57

---

- Test system: lung cancer cells (line MV522)
- ASSAY OVERVIEW: Cancer cell proliferation (MV522) assay (MTT)
- Format: cell-based
pIC50: −log10 of the molar value.
MEASUREMENT NAME: pIC50

Exercise: Can you share its pIC50? I mean this molecule: CC(C)(C)c1cccc(NC(=O)c2cccc(CSc3ncnc4[nH]ncc34)c2)c1 [Example B-18]
Key: < 5.00

---

- TARGET OR SYSTEM: unphosphorylated VEGF-R2Δ50 (FLVK) (Homo sapiens, UniProt P35968, DEL940-989/E990V)
- Construct: VEGF-R2Δ50 contains residues 806-939 and 990-1171; made in house; host or cells: baculovirus/insect cells
- Sequence (P35968 with tags, fused parts or gaps DEL940-989/E990V limits assumed): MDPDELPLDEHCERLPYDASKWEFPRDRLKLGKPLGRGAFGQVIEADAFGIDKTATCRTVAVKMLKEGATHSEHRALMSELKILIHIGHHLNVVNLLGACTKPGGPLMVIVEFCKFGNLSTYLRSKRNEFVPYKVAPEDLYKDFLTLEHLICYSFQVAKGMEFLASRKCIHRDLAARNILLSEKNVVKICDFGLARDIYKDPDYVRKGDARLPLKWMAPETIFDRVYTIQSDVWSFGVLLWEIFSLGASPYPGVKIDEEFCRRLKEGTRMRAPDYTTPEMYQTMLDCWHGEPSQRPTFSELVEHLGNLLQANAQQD
- ASSAY OVERVIEW: VEGF-R2 coupled spectrophotometric assay, unphosphorylated construct (FLVK);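 further: Baculovirus-expressed cytosolic kinase domain, ADP formation linked via pyruvate kinase and lactate dehydrogenase to NADH oxidation, read as falling absorbance at 340 nm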
- Assay type: biochemical
- CONDITION SUMMARY: @ 50 nM; read-out: FLVK percent inhibition
Classification field: enter yes for inhibition at 0.05 µM values not below 20%, no for values below it.

Exercise: Given the entry O=C(Nc1ccc(-n2cccn2)c(C(F)(F)F)c1)c1ccc(F)c(OCc2cccnc2)c1 [Example R-22] , answer whether its inhibition at 0.05 µM meets or surpasses 20%.
Key: yes

Exercise: Given the entry O=C(Nc1ccc(-n2ccnc2)c(C(F)(F)F)c1)c1ccc(F)c(OCc2cccnc2)c1 [Example R-21] , answer whether its inhibition at 0.05 µM meets or surpasses 20%.
Key: yes

Exercise: Given the entry O=C(Nc1cccc(CSc2ncnc3[nH]ncc23)c1)c1ccc(Oc2ccccc2)cc1 [Example V-6] , answer whether its inhibition at 0.05 µM meets or surpasses 20%.
Key: no

Exercise: Given the entry CC(=O)Nc1ccc(COc2cccc(C(=O)Nc3ccc(C(C)C)c(C)c3)c2)cn1 [Example N-2] , answer whether its inhibition at 0.05 µM meets or surpasses 20%.
Key: no

Exercise: Given the entry O=C(Nc1cccc(CSc2ncnc3[nH]ncc23)c1)c1ccc2ncccc2c1 [Example V-11] , answer whether its inhibition at 0.05 µM meets or surpasses 20%.
Key: no

Exercise: Given the entry O=C(Nc1cccc2c1OC(F)(F)O2)c1cccc(CCc2cncc3ccccc23)c1 [Example O-2] , answer whether its inhibition at 0.05 µM meets or surpasses 20%.
Key: no

Exercise: Given the entry O=C(Nc1cccc(CSc2ncnc3[nH]ncc23)c1)c1cc2cc(F)ccc2[nH]1 [Example V-12] , answer whether its inhibition at 0.05 µM meets or surpasses 20%.
Key: no

Exercise: Given the entry O=C(Nc1cccc(OCc2cccnc2)c1)N1CCCC1 [Example Y-1] , answer whether its inhibition at 0.05 µM meets or surpasses 20%.
Key: no

---

- Test system: human umbilical vein endothelial cells (HUVEC)
- ASSAY OVERVIEW: HUVEC proliferation assay (VEGF-stimulated, MTT)
- Format: cell-based
- CONDITION SUMMARY: Homo sapiens, HUVEC; read-out: HUVEC IC50
Counter-ions that a name gives are not always drawn.
MEASUREMENT NAME: IC50 (nM)
Please reply with the bare figure in nM and do not write the unit itself.

Exercise: Can you share its IC50? I mean this compound: COc1ccc(Nc2cc(CCc3cccc(C(=O)Nc4ccc(N5CCNCC5)c(C(F)(F)F)c4)c3)[nH]n2)cn1
Key: 5.7

Exercise: Can you share its IC50? I mean this compound: CSc1cc(C)nc2ccc(NC(=O)c3cccc(OCc4cncc5ccccc45)c3)cc12 [Example K-4, hydrochloride]
Key: 380

Exercise: Can you share its IC50? I mean this compound: Cc1cc(NC(=O)c2ccc(F)c(OCc3cncc4ccccc34)c2)ccc1C(C)C
Key: 12

Exercise: Can you share its IC50? I mean this compound: O=C(Nc1ccc(N2CCNCC2)c(C(F)(F)F)c1)c1ccc(F)c(OCc2cccnc2)c1
Key: 19
